Reference source: the supplement of paper PMC9170038

# Test system: MS2 coat protein
# ASSAY METHOD TEXT: apparent KD of MS2 coat protein; designed switch direction (-1 OFF switch, 1 ON switch): -1; higher = weaker reporter binding
# EXPERIMENTAL CONDITIONS: input ligand: FMN 200 uM
Recorded apparent KD of MS2 coat protein for the following sequences
Respond with the bare value in nM.

AUUGUUUAUGUAGGAUAUGCCUGGCGUGCCUUUGCAGAAGGACAUGAGGAUCACCCAUGUAUUGCGGUCUGCGUUCAGAUCGCC [salish99_ExNG1_r4_035] (Eterna round: R96, puzzle: Exclusion NG 1); 27.6

Annotate the sequence GCAGCUAACUGUGAUAACAGCACAUGAGGAUCACCCAUGUCUGAGGAUAUGGACUGGAUUACAGUCCAGAAGGCAGAAUGCUGC [Zipper Style 7] (Eterna round: R96, puzzle: Exclusion NG 3) with its measured apparent KD of MS2 coat protein. 10.8

Annotate the sequence UAUUGUUUUUUUUUAAAUUACAUGAGGAUCACCCAUGUUUUUUUUUUUUUGGUGAUUAUUUUUUGUCUUUUUUUUUU [Jieuxbot 037 - Jieux - Sensor v2, turn-off variant] (Eterna round: R96, puzzle: Sensor v2, turn-off variant) with its measured apparent KD of MS2 coat protein. 58.5

Annotate the sequence UUAGAUUGAGGAUAUUUGGAUCCGUACAUGAGGAUCACCCAUGUGUGUAGCACAUUCAACGGAGAAGGCGGUUUCU [Eternabot (L1) Solution 73] (Eterna round: R97, puzzle: Exclusion 5) with its measured apparent KD of MS2 coat protein. 143

----------
# Test system: MS2 coat protein
# ASSAY METHOD TEXT: apparent KD of MS2 coat protein; designed switch direction (-1 OFF switch, 1 ON switch): -1; higher = weaker reporter binding
# EXPERIMENTAL CONDITIONS: Eterna round: R95; input ligand: FMN 200 uM
Hi, to clarify the labels: yes (1) covers apparent KD of MS2 coat protein from 60 nM upward, no (0) covers anything below 60 nM.

GUCGUGACCAAGGAUAUAGCUAGGGAAGGAAAGUUAGAAGGUGGUACAUGAGGAUCACCCAUGUAGUCCACAAA [Dixeatleve] (puzzle: Exclusion 6); no (0)

Determine whether measured apparent KD of MS2 coat protein meets or exceeds 60 nM for GAGGUGGGUUUUCAGAGUAACAUGAGGAUCACCCAUGUAGAAGUUGAAGGUAUCAAGCGAAUGGCUCGUCAAAUGUG [JR_SV3TOV1_Sub048] (puzzle: Sensor v3, turn-off variant 1) yes (1)

Determine whether measured apparent KD of MS2 coat protein meets or exceeds 60 nM for GCCGAGUGAGGAUAUACAUGAGGAUCACCCAUGUAAACACGAAAGCAAGUGUCCCUCAGUAGAAGGCGCCAGGA [Xeanonis] (puzzle: Exclusion 3) no (0)

Determine whether measured apparent KD of MS2 coat protein meets or exceeds 60 nM for CAUGUCCGAGGAUAUAUUAUGUGAAACAUGAGGAUCACCCAUGUUAUAUGAUGGAUGUAAAUAGAAGGCGGACGUG [Mat - Exclusion 5 - JL mod - D65] (puzzle: Exclusion 5) no (0)

Determine whether measured apparent KD of MS2 coat protein meets or exceeds 60 nM for AUUGAUAUUGAGGAUAUGCUUUUAUUUGUACUAGCAGAAGGCGAUACAUGAGGAUCACCCAUGUUUAUGGAAGU [JR_E6_Sub088] (puzzle: Exclusion 6) no (0)

Determine whether measured apparent KD of MS2 coat protein meets or exceeds 60 nM for AGUACUGACACGAAAGUGUUAGUACAAUAAGCUUGUGAAACAUGAGGAUCACCCAUGUCCUCAUAAGCUCGUCUUAU [salish99_TOv2_r3_017] (puzzle: Sensor v3, turn-off variant 2) no (0)

Determine whether measured apparent KD of MS2 coat protein meets or exceeds 60 nM for UGGUGGAAGCAGGAUAUGCUAGAAGUGUAGUUUGCAGAAGGGCUAACAUGAGGAUCACCCAUGUAAGAGGUGUU [JR_E6_Sub053] (puzzle: Exclusion 6) yes (1)

Determine whether measured apparent KD of MS2 coat protein meets or exceeds 60 nM for GGUACUAUCACCUGAGUGGUAGUGCUAUAAGCUUGUGAUACAUGAGGAUCACCCAUGUCCUCAUUUGCUCGUCUUAU [JL-sv3-2.29 JL mod] (puzzle: Sensor v3, turn-off variant 2) yes (1)

Determine whether measured apparent KD of MS2 coat protein meets or exceeds 60 nM for UUUAAAACAUAGGAUAUCGAAAUUAUCAUUUAACGAGAAGGAUGAACAUGAGGAUCACCCAUGUGGUAUCAUGG [Mat - Exclusion 6 - JL Mod - D17] (puzzle: Exclusion 6) yes (1)

Determine whether measured apparent KD of MS2 coat protein meets or exceeds 60 nM for AGUACUAACACGAAAGUGUUAGUACAAUAAGCUUGUGAAACAUGAGGAUCACCCAUGUCCUCAUGAGCUCGUCUUAU [salish99_TOv2_r3_051] (puzzle: Sensor v3, turn-off variant 2) yes (1)

Determine whether measured apparent KD of MS2 coat protein meets or exceeds 60 nM for AGUACUUACUCGAUAGUGUUAGUACAAUAAGCUUGUGAAACAUGAGGAUCACCCAUGUCCUCAUUAGCUCGUCUUAU [salish99_TOv2_r3_1006] (puzzle: Sensor v3, turn-off variant 2) yes (1)

Determine whether measured apparent KD of MS2 coat protein meets or exceeds 60 nM for GAAAAGGUAGGAUAUACGAAAAAAAAGGGUAGAAAGAAAACACAUGAGGAUCACCCAUGUAGAAGGACCAAAAG [salish99_ex2_r3_017] (puzzle: Exclusion 2) yes (1)

Determine whether measured apparent KD of MS2 coat protein meets or exceeds 60 nM for GGUACUAACAGCUGACUGUUAGUACUGUAGGUUUGUGUUACAUGAGGAUCACCCAUGUCCUCAUAGGCUCGUCUUGU [JL-sv3-2.24 mat747 mod] (puzzle: Sensor v3, turn-off variant 2) yes (1)

Determine whether measured apparent KD of MS2 coat protein meets or exceeds 60 nM for CUUGAGUGACAAGCUUUUUGCUCGUCUGUUAUUGAUGCUACAUGAGGAUCACCCAUGUUUAAGAUGUGUGAGGAUGG [JR_SV3TOV2_Sub054] (puzzle: Sensor v3, turn-off variant 2) no (0)

Determine whether measured apparent KD of MS2 coat protein meets or exceeds 60 nM for GAGGUGUUAGGAUAUCGGAGAUGGAGAAGAACGGGAAGAGCCGAGAAGGAACAUGAGGAUCACCCAUGUAGGUG [JR_Exclu4_Sub030] (puzzle: Exclusion 4) yes (1)

Determine whether measured apparent KD of MS2 coat protein meets or exceeds 60 nM for UAAUACAAGCAAAGAUCCUACAUGAGGAUCACCCAUGUGCUCGUCUUGUAAAGUACUAUCACGAAAGUGAUAGUACA [Mat - Sensor v3 - turn-off var 1 - Eli Mod - D77] (puzzle: Sensor v3, turn-off variant 1) no (0)

Determine whether measured apparent KD of MS2 coat protein meets or exceeds 60 nM for GGUCUGCGAGGAUAUACAUGAGGAUCACCCAUGUGAGUGAAACUAGUGAGGUCGAUUGGUAGAAGGCGCGGACG [Mat - Exclusion 3 - Mod of JL D82] (puzzle: Exclusion 3) no (0)

Determine whether measured apparent KD of MS2 coat protein meets or exceeds 60 nM for GGUUGGCGAGGAUAUACAUGAGGAUCACCCAUGUGAGAGAAAAAAGUGAGAACGAAAAGUAGAAGGCGCUGACG [salish99_ex3_r3_057] (puzzle: Exclusion 3) yes (1)

Determine whether measured apparent KD of MS2 coat protein meets or exceeds 60 nM for GUGUAGAUAGGAUAUACAUGAGGAUCACCCAUGUGAAUAAGAUAGAAUAAGAUAAAGUGUAGAAGGGUUAGUGU [Excluse me!!! 19 - Jieux - Exclusion 3] (puzzle: Exclusion 3) no (0)

----------
# Tested on: MS2 coat protein
# ASSAY METHOD TEXT: apparent KD of MS2 coat protein; designed switch direction (-1 OFF switch, 1 ON switch): 1; higher = weaker reporter binding
# EXPERIMENTAL CONDITIONS: input ligand: FMN 200 uM
Recorded apparent KD of MS2 coat protein for the following sequences
Respond with the bare value in nM.

These solved cases illustrate the format of a correct answer.
UAUUUAAUCAUAGGAUAUAGAGUGAAAUUUGGACUAGAAGGAUGUAACAUGAGGAUCACCCAUGUGGUAAGUGGGACACAGUGU [JR_SSNG1_Sub094] (Eterna round: R96, puzzle: Same State NG 1); 206
AAAUCAAGUAAAACAUGAGGAUCACCCAUGUGAGAAGCUUCCAAGGAUAUGGUAUGCAUGGAAACCCAGAAGGUGGUCAAAGCA [Eternabot solution 29] (Eterna round: R96, puzzle: Same State NG 3); 247
GCUGCAAGGGCAGGAUAUGGGUUCAGAGCAGAAGUGCGCUUUGAUACAUGAGGAUCACCCAUGUCCCAGAAGGGCCCAAGCGGC [Veribe] (Eterna round: R96, puzzle: Same State NG 2); 17.7
GCUCGACGUAUUGUUUACAUGAGGAUCACCCAUGUAGGUGCGAAGGAUAUCUACGUGUUUCAUGUAGAGAAGGUCGUGUCGAGC [SameState NG3 #92] (Eterna round: R96, puzzle: Same State NG 3); 19.3
UGGUACAUGGGAGGAUAUCAUGUAGAGACAUGAGGAUCACCCAUGUAGAUGGCCGGUAACCGGGAUGAGAAGGCCCAUGUACCU [JL SSNG1 3.65] (Eterna round: R96, puzzle: Same State NG 2); 161
UUCUCCUUUUUUUACAUGAGGAUCACCCAUGUUUACCCUACGUAGGAUAUCGAUGAGUGUUUGUACGAGAAGGACGUAGUAAGU [JR_SSND3_Sub058] (Eterna round: R96, puzzle: Same State NG 3); 37.4

Name the recorded apparent KD of MS2 coat protein of UGAAUAGUCACAGGAUAUCAUGCGAAAAUUGCGUGAGAAGGGUGGAUGUUGUGCUCAAAGUUCUACAUGAGGAUCACCCAUGUU [SameState NG1 #43] (Eterna round: R96, puzzle: Same State NG 1) , assay system MS2 coat protein. 61.2

Name the recorded apparent KD of MS2 coat protein of UUGCUCAUGUAAGGAUAUGCAGCCGUUUCGGCUGCAGAAGGUACUAUAAUACAUGAGGAUCACCCAUGUCUCUAUUAUUUAGUG [salish99_SSNG1_r04_924] (Eterna round: R96, puzzle: Same State NG 1) , assay system MS2 coat protein. 78.6

Name the recorded apparent KD of MS2 coat protein of UAUCCAUAGAUAGGAUAUCAGUAUACAUGAGGAUCACCCAUGUUAUAUUUGGUUUUAAGUUAGUCUGAGAAGGAUCUUGAUGAA [SameState NG2 #3] (Eterna round: R96, puzzle: Same State NG 2) , assay system MS2 coat protein. 12.4
